- Assay protocol: Binding affinity to 2-AP labeled 16s rRNA (unknown origin) having pairing of C1405-G1496 by fluorescence assay
pKd: −log10 of the molar value.
Readout label: pKd

* NC[C@H]1O[C@H](O[C@H]2[C@H](O[C@@H]3O[C@H](CO)[C@@H](O)[C@H](O)[C@H]3O)[C@@H](O)[C@H](N)C[C@@H]2N)[C@H](N)[C@@H](O)[C@@H]1O | 6.22

(1) NC[C@@H]1O[C@H](O[C@H]2[C@@H](O)[C@H](O[C@@H]3[C@@H](O)[C@H](N)C[C@H](N)[C@H]3O[C@H]3O[C@H](CN)[C@@H](O)[C@H](O)[C@H]3N)O[C@@H]2CO)[C@H](N)[C@@H](O)[C@@H]1O [FRAMYCETIN]
(2) CCCCCCCCCCCCCCCC(=O)NC[C@H]1O[C@@H](O[C@@H]2[C@@H](O)[C@H](N)C[C@H](N)[C@H]2O[C@H]2O[C@H](CN)[C@@H](O)[C@H](O)[C@H]2N)[C@H](O)[C@@H]1O[C@@H]1O[C@H](CN)[C@H](O)[C@@H](O)[C@@H]1N
Of 1 and 2 , which one carries the higher reported pKd? Indicate your choice by writing its label.
2
(2: 6.13, 1: 5.90)
